Test system: MDA-MB-468 complex spheroids with HUVEC/MSC, viability
Assay: Anticancer human tumor MDA-MB-468 cell line growth inhibition;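 also: spheroids exposed to agents for seven days; 100% = DMSO vehicle control viability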
Conditions: second compound 1 µM; first compound 0.000949 µM; hits give low values
The label Criterion met is reserved for viability, T/C strictly under 30%; Criterion not met covers values equal to or above it.

As a guide, the following entries are already answered.
Nc1ccn(C2OC(CO)C(O)C2(F)F)c(=O)n1 (stereo unspecified) + NC1CCC(NC2CC2c2ccccc2)CC1 ... Criterion met
CCc1c2c(nc3ccc(O)cc13)-c1cc3c(c(=O)n1C2)COC(=O)[C@]3(O)CC + NC1CC1c1ccc(-c2cccc(O)c2)cc1 ... Criterion met
Nc1ncn(C2CC(O)C(CO)S2)c(=O)n1 (stereo unspecified) + NC1CCC(NC2CC2c2ccccc2)CC1 ... Criterion not met
Nc1ccn(C2OC(CO)C(O)C2(F)F)c(=O)n1 (stereo unspecified) + NC1CC1c1ccc(-c2cccc(O)c2)cc1 ... Criterion not met
Nc1ncn(C2CC(O)C(CO)S2)c(=O)n1 (stereo unspecified) + NC1CC1c1ccc(-c2cccc(O)c2)cc1 ... Criterion not met

Here is the next item to consider.
Inquiry: is_below(viability, T/C, 30%) for CCc1c2c(nc3ccc(O)cc13)-c1cc3c(c(=O)n1C2)COC(=O)[C@]3(O)CC + NC1CCC(NC2CC2c2ccccc2)CC1 ?
Reply text: Criterion met

====

System: MDA-MB-468 complex spheroids with HUVEC/MSC, viability
Experiment: Anticancer human tumor MDA-MB-468 cell line growth inhibition;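 also: spheroids exposed to agents for seven days; 100% = DMSO vehicle control viability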
Conditions: second compound 3.16 µM; first compound 1 µM; hits give low values
Source text: Multicellular complex tumor spheroid response to LSD1 Inhibitor Iadademstat in combination with a variety of drugs and investigational agents in selected tumor cell lines The current study was undertaken to assess response to LSD1 inhibitors in combination with standard-of-care drugs and investigational agents in solid tumor complex spheroid models as well as in the K-562 leukemia. […] Compounds. […] If the clinical Cmax for an agent had not been determined, the highest concentration tested was 10 microM. […]
Parameter class (string): assigned from measured viability, T/C. Ranges: low (below 7%), moderate (7% to below 50%), high (50% or more)

O=C(C=Cn1cnc(-c2cc(C(F)(F)F)cc(C(F)(F)F)c2)n1)NNc1cnccn1 + NC1CCC(NC2CC2c2ccccc2)CC1 ... low
CC1COCCN1c1cc(C2(S(C)(=N)=O)CC2)nc(-c2ccnc3[nH]ccc23)n1 (stereo not drawn) + NC1CC1c1ccc(-c2cccc(O)c2)cc1 ... moderate
COc1ccc([C@@H](O)c2cc(-c3ncnc4cc(N5CCOCC5)ccc34)c(F)cc2Cl)nn1 + NC1CC1c1ccc(-c2cccc(O)c2)cc1 ... moderate
COc1ccc([C@@H](O)c2cc(-c3ncnc4cc(N5CCOCC5)ccc34)c(F)cc2Cl)nn1 + NC1CCC(NC2CC2c2ccccc2)CC1 ... high
COc1cc(Nc2ncc3c(n2)-c2ccc(Cl)cc2C(c2c(F)cccc2OC)=NC3)ccc1C(=O)O + NC1CC1c1ccc(-c2cccc(O)c2)cc1 ... low
Nc1ncn(C2CC(O)C(CO)O2)c(=O)n1 (stereo not drawn) + NC1CCC(NC2CC2c2ccccc2)CC1 ... moderate

Inquiry: Sort into band: O=C(c1cc(Cc2n[nH]c(=O)c3ccccc23)ccc1F)N1CCN(C(=O)C2CC2)CC1 + NC1CC1c1ccc(-c2cccc(O)c2)cc1
Reply text: moderate

Inquiry: Pick a category. Item: O=C(c1cc(Cc2n[nH]c(=O)c3ccccc23)ccc1F)N1CCN(C(=O)C2CC2)CC1 + NC1CCC(NC2CC2c2ccccc2)CC1
Reply text: moderate

Inquiry: Hello team, could you let me know which band the following compound falls into: CC1(C)CCC(CN2CCN(c3ccc(C(=O)NS(=O)(=O)c4ccc(NCC5CCOCC5)c([N+](=O)[O-])c4)c(Oc4cnc5[nH]ccc5c4)c3)CC2)=C(c2ccc(Cl)cc2)C1 + NC1CCC(NC2CC2c2ccccc2)CC1
Reply text: high

Inquiry: # bin lookup: classify CC1(C)CCC(CN2CCN(c3ccc(C(=O)NS(=O)(=O)c4ccc(NCC5CCOCC5)c([N+](=O)[O-])c4)c(Oc4cnc5[nH]ccc5c4)c3)CC2)=C(c2ccc(Cl)cc2)C1 + NC1CC1c1ccc(-c2cccc(O)c2)cc1 by its viability, T/C
Reply text: high

Inquiry: Lab note: which band did O=C(C=Cn1cnc(-c2cc(C(F)(F)F)cc(C(F)(F)F)c2)n1)NNc1cnccn1 + NC1CC1c1ccc(-c2cccc(O)c2)cc1 land in?
Reply text: low

Inquiry: Given CC(C)c1c(-c2ccccc2)nc2c(C#N)c[nH]n2c1=O + NC1CCC(NC2CC2c2ccccc2)CC1 , name the class its viability, T/C places it in.
Reply text: high

Inquiry: Given CC1COCCN1c1cc(-c2ccnn2C)c2ccnc(-c3ccn[nH]3)c2n1 (stereo not drawn) + NC1CCC(NC2CC2c2ccccc2)CC1 , name the class its viability, T/C places it in.
Reply text: moderate

Inquiry: Hi there! Could you help me figure out the category for CC(C)c1c(-c2ccccc2)nc2c(C#N)c[nH]n2c1=O + NC1CC1c1ccc(-c2cccc(O)c2)cc1 please?
Reply text: high

====

Test system: MDA-MB-468 complex spheroids with HUVEC/MSC, viability
Assay: Anticancer human tumor MDA-MB-468 cell line growth inhibition;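 also: spheroids exposed to agents for seven days; 100% = DMSO vehicle control viability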
Details: second compound 10 µM; first compound 10 µM; hits give low values
reportedEndpoint: viability, T/C

CC(C)c1c(-c2ccccc2)nc2c(C#N)c[nH]n2c1=O + NC1CCC(NC2CC2c2ccccc2)CC1 ... 70.4%
CC1COCCN1c1cc(C2(S(C)(=N)=O)CC2)nc(-c2ccnc3[nH]ccc23)n1 (stereo not drawn) + NC1CC1c1ccc(-c2cccc(O)c2)cc1 ... 6.83%

Proceeding to the next molecule to report its viability, T/C.
Inquiry: Entry under review: CC1(C)CCC(CN2CCN(c3ccc(C(=O)NS(=O)(=O)c4ccc(NCC5CCOCC5)c([N+](=O)[O-])c4)c(Oc4cnc5[nH]ccc5c4)c3)CC2)=C(c2ccc(Cl)cc2)C1 + NC1CC1c1ccc(-c2cccc(O)c2)cc1 . Reported viability, T/C?
Reply text: 1.82%

====

Test system: MDA-MB-468 complex spheroids with HUVEC/MSC, viability
Experiment: Anticancer human tumor MDA-MB-468 cell line growth inhibition; active means viability on the fitted dose curve at most 10% of control; inactive means the rest;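 also: spheroids exposed to agents for seven days; 100% = DMSO vehicle control viability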
Conditions: second compound 0.316 µM; first compound 0.949 µM
Excerpt: Multicellular complex tumor spheroid response to LSD1 Inhibitor Iadademstat in combination with a variety of drugs and investigational agents in selected tumor cell lines The current study was undertaken to assess response to LSD1 inhibitors in combination with standard-of-care drugs and investigational agents in solid tumor complex spheroid models as well as in the K-562 leukemia. […] Compounds. […] If the clinical Cmax for an agent had not been determined, the highest concentration tested was 10 microM. […]
Could you please pick one outcome from this set? active, inactive

Nc1ccccc1NC(=O)c1ccc(CNC(=O)OCc2cccnc2)cc1 + NC1CCC(NC2CC2c2ccccc2)CC1 ... active
Nc1ccccc1NC(=O)c1ccc(CNC(=O)OCc2cccnc2)cc1 + NC1CC1c1ccc(-c2cccc(O)c2)cc1 ... active

Consider now this further compound.
Inquiry: Identify the outcome logged in this assay for the compound shown: O=C(C=Cc1cccc(S(=O)(=O)Nc2ccccc2)c1)NO + NC1CC1c1ccc(-c2cccc(O)c2)cc1
Reply text: inactive

====

Test system: MDA-MB-468 complex spheroids with HUVEC/MSC, viability
Experiment: Anticancer human tumor MDA-MB-468 cell line growth inhibition;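 also: spheroids exposed to agents for seven days; 100% = DMSO vehicle control viability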
Settings: second compound 3.16 µM; first compound 0.001 µM; hits give low values
reportedEndpoint: viability, T/C (%)
The figure you give is taken to be in %; do not add the unit.

CC(C)CC(NC(=O)CNC(=O)c1cc(Cl)ccc1Cl)B1OC(=O)CC(CC(=O)O)(C(=O)O)O1 (stereo not drawn) + NC1CC1c1ccc(-c2cccc(O)c2)cc1 ... 100
CC[C@@]1(O)C(=O)OCc2c1cc1n(c2=O)Cc2cc3c(CN(C)C)c(O)ccc3nc2-1 + NC1CCC(NC2CC2c2ccccc2)CC1 ... 40
CC(C)CC(NC(=O)CNC(=O)c1cc(Cl)ccc1Cl)B1OC(=O)CC(CC(=O)O)(C(=O)O)O1 (stereo not drawn) + NC1CCC(NC2CC2c2ccccc2)CC1 ... 101
CC(C)CC(NC(=O)C(Cc1ccccc1)NC(=O)c1cnccn1)B(O)O (stereo not drawn) + NC1CCC(NC2CC2c2ccccc2)CC1 ... 24.5
CC(C)CC(NC(=O)C(Cc1ccccc1)NC(=O)c1cnccn1)B(O)O (stereo not drawn) + NC1CC1c1ccc(-c2cccc(O)c2)cc1 ... 0.06

Inquiry: Bench note: what viability, T/C did Cn1ncnc1C1c2n[nH]c(=O)c3cc(F)cc(c23)NC1c1ccc(F)cc1 (stereo not drawn) + NC1CC1c1ccc(-c2cccc(O)c2)cc1 show?
Reply text: 85.5

Inquiry: Report viability, T/C for CC[C@@]1(O)C(=O)OCc2c1cc1n(c2=O)Cc2cc3c(CN(C)C)c(O)ccc3nc2-1 + NC1CC1c1ccc(-c2cccc(O)c2)cc1 please.
Reply text: 51.8

Inquiry: Fill blank: measured viability, T/C of the compound Cn1ncnc1C1c2n[nH]c(=O)c3cc(F)cc(c23)NC1c1ccc(F)cc1 (stereo not drawn) + NC1CCC(NC2CC2c2ccccc2)CC1 is ____.
Reply text: 86.9
